Entry source: patent US20110135636A1

Provide the reported % inhibition of each item.
- assay.system: T1, recombinant human EGFR extracellular domain with 6xHis (human, UniProt P00533 25-645)
- T1 construct: In-house produced; also called 6xHis EGFR ECD; soluble human EGFR ECD; not shown: 6xHis tag
- assay.procedure: SPR competition, competitor Vectibix
Provide the measurement as a number trailed by its unit.

Query: I would be grateful if you could share the reported % inhibition for antibody 1030 (antibody, human IgG1, kappa, V domains shown, Chimeric IgG1 kappa) VH: EVQLVESGGGLVKPGGSLKLSCAASGFTFSSYALSWVRQTPERRLEWVASISGVGSTYFPDSVKGRFTMSRDNARNILYLQMSSLRSEDTAMYYCARGSDGYFYAMDYWGQGTSVTVSS VL: DIVLTQSPASLAVSLGQRATISCRASKSVSTSGYSFMHWYQLKPGQPPKLLIYLASNLESGVPARFSGSGSGTDFTLNIHPVEEEDAATYYCQHSREFPLTFGGGTKLEIKR .
Result: 17%

Query: Value lookup for % inhibition; key = antibody 1254 (antibody, human IgG1, kappa, V domains shown, Chimeric IgG1 kappa; also called mAb 1254) VH: EVQLVESGGGLVKPGGSLKLSCAASGFAYSTYDMSWVRQTPEKRLEWVAYISSGGDAAYYPDTVKGRFTISRDNAKNTLYLQMSSLKSEDTAMYYCARSRYGNYGDAMDYWGQGTSVTVSS VL: DVVMTQTPLSLPVSLGDQASISCRSSQSLVHSNGNTYLHWYLQKPGQSPKLLLYKVSNRFSGVPDRFSGSGSGTDFTLKISRVESEDLGVYFCSQNTHVYTFGGGTKLEIKR
Result: 96%

Query: What % inhibition value was documented for this binder, antibody 1308 (antibody, human IgG1, kappa, V domains shown, Chimeric IgG1 kappa) VH: EVQLQQSGAELVRPGSSVKISCKASGYAFSSYWMNWVRQRPGQGLEWIGQIYPGDGDTNYNGKFKGRATLTANKSSSTAYMQLSSLTSEDSAVYFCARRASSLYDVYPYYFDYWGQGTTLTVSS VL: DIQMTQTTSSLSASLGDRVTISCRASQDISNYLNWYQQKPDGTVKVLIYYTSRLHSGVPSRFSGSGSGTDYSLTISNLEQEDIATYFCQQGNTLPYTFGGGTKLEIKR ?
Result: -7%
